Target: T1, human Protein S (human, UniProt P07225 42-676)
T1 construct: Called 'full length Protein S' / 'human full-length Protein S'; It was coated on plates (ELISA), Eu-labeled (LANCE) or immobilized on a chip (Biacore); also called PS; full length Protein S
T1 sequence: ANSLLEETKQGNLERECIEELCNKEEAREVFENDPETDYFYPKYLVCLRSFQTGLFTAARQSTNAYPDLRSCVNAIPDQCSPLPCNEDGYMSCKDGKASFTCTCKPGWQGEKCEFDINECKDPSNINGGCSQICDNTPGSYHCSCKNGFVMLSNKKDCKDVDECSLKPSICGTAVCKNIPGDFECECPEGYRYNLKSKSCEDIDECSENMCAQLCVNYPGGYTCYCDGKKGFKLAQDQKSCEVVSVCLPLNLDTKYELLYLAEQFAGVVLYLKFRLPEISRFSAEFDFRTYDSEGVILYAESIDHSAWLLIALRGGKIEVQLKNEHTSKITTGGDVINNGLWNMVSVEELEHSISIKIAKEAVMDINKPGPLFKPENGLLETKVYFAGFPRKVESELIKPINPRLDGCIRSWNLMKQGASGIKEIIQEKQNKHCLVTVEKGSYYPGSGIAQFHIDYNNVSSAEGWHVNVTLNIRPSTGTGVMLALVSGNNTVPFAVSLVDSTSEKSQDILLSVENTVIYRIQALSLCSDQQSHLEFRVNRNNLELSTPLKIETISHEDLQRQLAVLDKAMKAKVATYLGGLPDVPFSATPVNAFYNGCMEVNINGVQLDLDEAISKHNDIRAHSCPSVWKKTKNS
Test: competition ELISA; Protein S coated; competitor biotinylated tracer JBS0684
MEASURED METRIC: IC50 (nM)
Express the result in nM but write the number alone.

// solved cases for IC50 follow
>  <BINDER>
Ac-TAHVSAGWYDYNFDHYREFT-NH2 [JBS2516]

>  <RECORDED MEASUREMENT>
3.3

$$$$
>  <BINDER>
Ac-TGLVSAGWYDYNFDHYREFT-NH2 (also called parent peptide JBS2572) [JBS2572]

>  <RECORDED MEASUREMENT>
2.5

$$$$
>  <BINDER>
Ac-TKHVSAGWYDYNFDHYREFT-NH2 [JBS2591]

>  <RECORDED MEASUREMENT>
4.2

$$$$
>  <BINDER>
Ac-TGHVSAGWYDYNFDHYLEFT-NH2 [JBS2586]

>  <RECORDED MEASUREMENT>
2.6

$$$$
>  <BINDER>
Ac-TGHVSAGWYDYNFDKYREFT-NH2 [JBS2604]

>  <RECORDED MEASUREMENT>
4.1

$$$$

Note: attention shifts to another entry.
Given the binder Ac-TPHVSAGWYDYNFDHYREFT-NH2 [JBS2629] , what is its reported IC50?
3.1
